Provide the recorded %Inh for the entries that follow.
# Test system: EGFR
# condition.description: concentration: 1 μM, replicates: in singlicate; n = 1;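 note: KINOMEscan kinase panel screen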
Please answer in the form of a number followed by its unit of measurement.

In: Given the entry `Cn1cc(-c2ccc3c(c2)CCN3C(=O)Cc2ccccc2Cl)c2c(N)ncnc21` , report its measured %Inh.
Out: 100%

In: Moving on to the next molecule: `Cc1cccc(-c2nc(-c3ccc(S(C)(=O)=O)cc3)sc2-c2ccncc2)c1`
Out: 0%

In: Moving on to the next molecule: `NS(=O)(=O)CCc1cccc(Nc2nccc(-c3c(-c4cccc(NC(=O)c5c(F)cccc5F)c4)nn4ccccc34)n2)c1`
Out: 100%

In: Moving on to the next molecule: `Nc1nc(-c2ccc3c(N)n[nH]c3c2)cc(N2CCCC2)n1`
Out: 2%

In: Moving on to the next molecule: Cc1nnc(-c2ccc3occ(-c4ccc(C(C)O)cc4)c3c2)o1 (stereo not drawn)
Out: 28%

In: Moving on to the next molecule: `c1ccc(-c2cc(-c3c[nH]nc3-c3ccccn3)ccn2)cc1`
Out: 17%

In: Moving on to the next molecule: `CC(=O)Nc1ccc(COc2ccc(Nc3ccnc4cc(-c5ccccn5)ccc34)cc2)cc1.Cl`
Out: 23%

In: Moving on to the next molecule: `COc1cc2c(cc1OC[C@@H](O)CO)ncc1c3ccc(C#N)cc3[nH]c21`
Out: 0%

In: Moving on to the next molecule: `CNc1ncnc2[nH]ncc12`
Out: 0%

----------
# Test system: RIOK2
# condition.description: concentration: 1 μM, replicates: in singlicate; n = 1
Provide the recorded %Inh for the entries that follow.
Supply the numeric figure in %, leaving out any unit text.

In: Given the entry `Cc1ccc(C(=O)NCC(N)=O)cc1-n1c(C)cc(OCc2ccc(F)cc2F)c(Br)c1=O` , report its measured %Inh.
Out: 0

In: Moving on to the next compound: `COc1ccc(COc2cc(-n3cnc4ccccc43)sc2C(N)=O)cc1`
Out: 80

In: Moving on to the next compound: `Cc1nnc(-c2ccc(C)c(-c3ccc(C(=O)Nc4ccc(NS(C)(=O)=O)cc4)cc3)c2)o1`
Out: 0

In: Moving on to the next compound: `NS(=O)(=O)c1cccc(-c2ccc3ncc(N4CCOCC4)nc3c2)c1`
Out: 41

----------
# Tested on: BMPR1A
# condition.description: concentration: 1 μM, replicates: in singlicate; n = 1
measurement.name: %Inh
Please answer in the form of a number followed by its unit of measurement.

In: API: value(readout=%Inh, system=BMPR1A) for record `CSc1ccc(-c2cc3ncnc(SCC(=O)O)c3s2)cc1`
Out: 0%

In: Moving on to the next compound: O=C(NCCNc1ccnc(Nc2ccc(F)cc2)n1)c1cc2ccccc2s1 [GSK1379874]
Out: 0%

In: Moving on to the next compound: NS(=O)(=O)c1cccc(-c2ccc3nccc(-c4cccc(S(N)(=O)=O)c4)c3c2)c1 [GW867253]
Out: 0%

In: Moving on to the next compound: NCC(NC(=O)c1cc(-c2cn[nH]c2)c(-c2ccnc3[nH]ccc23)s1)c1ccccc1.O=C(O)C(F)(F)F.O=C(O)C(F)(F)F (stereo not drawn) [GSK1325775]
Out: 0%

In: Moving on to the next compound: `O=C1Cc2cc(Nc3nc(NCc4cccc(S(=O)(=O)C(F)(F)F)c4)ncc3C(F)(F)F)ccc2N1`
Out: 0%

In: Moving on to the next compound: O=c1cc(N2CCOCC2)nc2n(Cc3cccc(Cl)c3Cl)c(C3CC3)nn12 [GSK2358994]
Out: 15%

In: Moving on to the next compound: O=C(c1ccc(-c2cc(-c3c[nH]nc3-c3ccccn3)ccn2)cc1)N1CCOCC1 [GW812171]
Out: 0%

In: Moving on to the next compound: Fc1ccc(-c2ncn(CCCN3CCOCC3)c2-c2cccnc2)cc1 [SB-211743]
Out: 0%

In: Moving on to the next compound: Cc1nnc(-c2ccc(C)c(-c3ccc(C(=O)Nc4ccc(NS(C)(=O)=O)cc4)cc3)c2)o1 [GW702865]
Out: 0%

In: Moving on to the next compound: `N#Cc1c(N2CCOCC2)sc(-c2ccn[nH]2)c1-c1ccc(Cl)cc1`
Out: 21%

In: Moving on to the next compound: [2H]C([2H])(c1cccc(C(F)(F)F)c1C)n1ccn2c(=O)nc(N3CCOCC3)cc12 [GSK2336394]
Out: 1%

In: Moving on to the next compound: COc1ccc(Nc2nccc(N3CCC(NC(=O)Nc4cc(C)ccc4C)C3)n2)cc1 (stereo not drawn) [GSK1379741]
Out: 0%

In: Moving on to the next compound: CN(C1=C(c2ccccc2)C(=O)NC1=O)c1ccccc1 [SB-334860]
Out: 0%

In: Moving on to the next compound: c1ccc(-c2n[nH]cc2-c2ccnc3ccccc23)nc1 [GW271431]
Out: 0%

In: Moving on to the next compound: NS(=O)(=O)CCc1cccc(Nc2nccc(-c3c(-c4cccc(NC(=O)c5c(F)cccc5F)c4)nn4ccccc34)n2)c1 [GSK336735]
Out: 0%

In: Moving on to the next compound: COc1ccc(CNC(=O)NC2CCN(c3ccnc(Nc4ccc(OC)cc4)n3)C2)cc1 (stereo not drawn) [GSK1379727]
Out: 0%

In: Moving on to the next compound: Cc1cccc(Cn2ccn3c(=O)cc(N4CCOCC4)nc23)c1 [GSK2297542]
Out: 0%

In: Moving on to the next compound: `CN1c2ccc(CNc3ccc(F)cc3)cc2-c2c(cnn2C)S1(=O)=O`
Out: 0%

----------
# Test system: JAK3(JH1domain-catalytic)
# condition.description: concentration: 1 μM, replicates: in singlicate; n = 1
measurement.name: %Inh (%)
Supply the numeric figure in %, leaving out any unit text.

In: Given the entry COc1ccc(CNC(=O)NC2CCN(c3ccnc(Nc4ccc(OC)cc4)n3)C2)cc1 (centres unmarked) , report its measured %Inh.
Out: 0

In: Moving on to the next compound: `CN(C(=O)c1ccc(-c2cc(-c3c[nH]nc3-c3ccccn3)ccn2)cc1)C1CCOCC1`
Out: 0

In: Moving on to the next compound: `COc1ccc(S(=O)(=O)NC2CCN(c3cc(C)nc(Nc4cccc(C#N)c4)n3)CC2)cc1.O=C(O)C(F)(F)F`
Out: 0

In: Moving on to the next compound: COc1ccc(Nc2nccc(N3CCC(NC(=O)Nc4cccc(C(C)=O)c4)C3)n2)cc1 (centres unmarked)
Out: 0

In: Moving on to the next compound: `COc1cc2c(cc1OCCN1CCN(C)CC1)ncc1c3ccc(C#N)cc3[nH]c21`
Out: 93.4

In: Moving on to the next compound: `Cn1ccc2ncnc(Oc3ccc(NC(=O)Nc4ccncc4)c(Cl)c3)c21`
Out: 0

In: Moving on to the next compound: Cc1nnc(-c2ccc3ncc(-c4ccc(S(C)=O)cc4)n3c2)o1 (centres unmarked)
Out: 0

In: Moving on to the next compound: `Cc1cccc(-c2nc(Nc3ccc4ncsc4c3)c3ccccc3n2)n1`
Out: 0

In: Moving on to the next compound: `O=c1cc(N2CCOCC2)nc2n(Cc3cccc(F)c3)ccn12`
Out: 0

In: Moving on to the next compound: `CCc1ccnc(/C=C/c2n[nH]c3cc(Sc4ccccc4C(=O)NC)ccc23)c1`
Out: 0

In: Moving on to the next compound: `O=C(NCCNc1ccnc(Nc2ccc(F)cc2)n1)c1cc2ccccc2s1`
Out: 0

In: Moving on to the next compound: `O=C(Nc1n[nH]c2cc(-c3cccc(F)c3)ccc12)C1CC1`
Out: 0

In: Moving on to the next compound: `CN1c2ccc(CNc3ccc(F)cc3)cc2-c2c(cnn2C)S1(=O)=O`
Out: 0

In: Moving on to the next compound: `NS(=O)(=O)CCc1cccc(Nc2nccc(-c3c(-c4cccc(NC(=O)c5c(F)cccc5F)c4)nn4ccccc34)n2)c1`
Out: 77

In: Moving on to the next compound: `COCCNC(=O)c1ccc(-c2cc(C(=O)NC3CC3)cc(F)c2C)cc1`
Out: 0

In: Moving on to the next compound: NCC(NC(=O)c1cc(-c2cn[nH]c2)c(-c2ccnc3[nH]ccc23)s1)c1ccccc1.O=C(O)C(F)(F)F.O=C(O)C(F)(F)F (centres unmarked)
Out: 100

In: Moving on to the next compound: `Cc1c2ccc(N(C)c3ccnc(Nc4cccc(S(N)(=O)=O)c4)n3)cc2nn1Cc1ccccc1.Cl.Cl`
Out: 0

----------
Provide the recorded %Inh for the entries that follow.
# Tested on: ABL2
# condition.description: concentration: 1 μM, replicates: in singlicate; n = 1
Please answer in the form of a number followed by its unit of measurement.

In: Given the entry `CC(C)Oc1ccc2c(-c3ccnc(Nc4ccc(N5CCN(C)CC5)cc4)n3)cnn2n1` , report its measured %Inh.
Out: 14%

In: Moving on to the next compound: `O=c1cc(N2CCOCC2)nc2n(Cc3cccc(Cl)c3Cl)c(C3CC3)nn12`
Out: 5%

In: Moving on to the next compound: `O=C(NCCCN1CCOCC1)c1cccc(Nc2nccc(Nc3ccc(Oc4ccccc4)cc3)n2)c1`
Out: 47%

In: Moving on to the next compound: `CN1c2ccc(NCc3ccc(F)cc3)cc2-c2c(cnn2C)S1(=O)=O`
Out: 0%

In: Moving on to the next compound: `O=c1cc(N2CCOCC2)nc2n(Cc3cccc(F)c3)ccn12`
Out: 2%

In: Moving on to the next compound: `CC(C)(C)n1cnc2c(N)ncnc21`
Out: 1%

In: Moving on to the next compound: `CN(C1=C(c2ccccc2)C(=O)NC1=O)c1ccccc1`
Out: 0%

In: Moving on to the next compound: `CCc1nc(-c2cccc(C)c2)c(-c2ccnc(NCc3ccccc3)c2)s1`
Out: 21%

In: Moving on to the next compound: COc1cc(Nc2nccc(N3CCC(NC(=O)c4cccc(NC(C)=O)c4)C3)n2)cc(OC)c1OC (stereo not drawn)
Out: 13%

In: Moving on to the next compound: `Cl.Nc1ncnc2occ(-c3ccc(NC(=O)Nc4cc(C(F)(F)F)ccc4F)cc3)c12`
Out: 81%

In: Moving on to the next compound: `N#Cc1ccc(-c2cc(-c3c[nH]nc3-c3ccccn3)ccn2)cc1`
Out: 10%

In: Moving on to the next compound: Cc1c(Cn2c(C)nn3c(=O)cc(N4CCOC(C)C4)nc23)cccc1C(F)(F)F (stereo not drawn)
Out: 11%
